Data origin, for the record: PubChem BioAssay

assay: inhibitors of E-selectin induction by TNFa, primary screen, imaging, HUVEC, immunofluorescence, MLSMR starter and 10KST1 sets (AID 487); conditions: HUVEC TNFalpha-induced E-selectin immunofluorescence imaging, at 2 µM; stronger effect = higher value;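 further: signal is fraction of cell area covered by stained E-selectin grains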
Activity calls are given as the source filed them.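 How the source made its calls: active means visually confirmed hit in the image check and inhibition above 20%; inconclusive means visually confirmed hit but inhibition not above 20%; inactive means no visual hit in the image check.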
Value Kind: inhibition

Reported inhibition for CCCOc1ccc(C2/C(=C(/O)c3ccccc3)C(=O)C(=O)N2CCCN(C)C)cc1OC (stereo not drawn) : what is it?
-92.3% (inactive)

Reported inhibition for "O=c1[nH]c(N2CCc3ccccc32)nc2c1CCCC2" : what is it?
14.7% (inactive)

Reported inhibition for "CCCc1cc(NCCCCO)n2c(nc3ccccc32)c1C#N" : what is it?
-67.8% (inactive)

Reported inhibition for CCOc1cc(C(=O)Nc2c3c(nn2C(C)(C)C)CS(=O)C3)cc(OCC)c1OCC (stereo not drawn) : what is it?
16.3% (inactive)

Reported inhibition for "Cn1c[n+](C)cc1/C=N/O" : what is it?
-108% (inactive)

Reported inhibition for "Cc1oc(-c2ccc(Cl)cc2)cc1-c1nn2c(-c3ccoc3C)nnc2s1" : what is it?
-24.2% (inactive)

Reported inhibition for "COC(=O)CN(c1ccc(C)c(Cl)c1)S(C)(=O)=O" : what is it?
13.8% (inactive)

Reported inhibition for "O=C(NCc1ccco1)c1cnc2n(c1=O)CCS2" : what is it?
7.8% (inactive)

Reported inhibition for "CCOC(=O)c1sc(=NC(=O)c2ccc(OC)c(OC)c2)n(C)c1C" : what is it?
47.2% (inactive)

Reported inhibition for CC(C(=O)Nc1ccccc1-c1ccccc1)N1CCOCC1 (stereo not drawn) : what is it?
-27.4% (inactive)

Reported inhibition for Cc1cc(N2C(=O)C(=O)/C(=C(/O)c3ccc(F)cc3)C2c2cccc(Br)c2)no1 (stereo not drawn) : what is it?
2.7% (inactive)

Reported inhibition for "CCCc1nnc(NC(=O)Nc2ccccc2OC)s1" : what is it?
14.1% (inactive)

Reported inhibition for "C[n+]1cccc(CNC(=O)/C=N/O)c1" : what is it?
-126% (inactive)

---

experiment: inhibitors of E-selectin induction by TNFa, primary screen, imaging, HUVEC, immunofluorescence, MLSMR starter and 10KST1 sets (AID 487); details: HUVEC TNFalpha-induced E-selectin immunofluorescence imaging, at 2 µM; stronger effect = higher value;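 further: signal is fraction of cell area covered by stained E-selectin grains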
Active and inactive are the calls of the source.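 The calls were made as follows: active = visually confirmed hit in the image check and inhibition above 20%; inconclusive = visually confirmed hit but inhibition not above 20%; inactive = no visual hit in the image check.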
Value Kind: inhibition

Reported inhibition for "CCC(=O)Nc1cccc(-c2nnc(SCC(=O)NCc3ccco3)n2C)c1" : what is it?
47.2% (inactive)

Reported inhibition for CC(O)CNc1nc2c(c(=O)n(C)c(=O)n2C)n1CCc1ccccc1 (configuration not stated) : what is it?
-92.1% (inactive)

Reported inhibition for "CC(C)CN1C(=O)c2ccc(C(=O)Nc3ccccn3)cc2C1=O" : what is it?
50% (inactive)

Reported inhibition for "O=c1c2ccccc2ncn1Cc1ccco1" : what is it?
-74.2% (inactive)

Reported inhibition for "Cn1c(=O)[nH]c(=O)c2c1nc(Br)n2CCSc1nnnn1-c1ccccc1" : what is it?
-40.4% (inactive)

Reported inhibition for "Cc1cc(C)n2cc(CSc3nnnn3-c3ccc(Cl)cc3)nc2n1" : what is it?
15.8% (inactive)

Reported inhibition for O=C(NCC(c1cccnc1)N1CCOCC1)c1cccs1 (configuration not stated) : what is it?
-81% (inactive)

Reported inhibition for "COc1ccc(-c2noc(-c3ccccc3C(=O)NCc3ccco3)n2)cc1" : what is it?
-64.4% (inactive)

Reported inhibition for CC(C)(C)OC(=O)N1CC=C2C(C#N)=C(N)C(C#N)(C#N)C(c3cccs3)C2C1 (configuration not stated) : what is it?
-132% (inactive)

Reported inhibition for Cc1cc(=O)oc(C)c1C(=O)NCC1CCCO1 (configuration not stated) : what is it?
-24.6% (inactive)

Reported inhibition for COC(=O)CC1=C(C(=O)OC)C(c2cccc(OCC(N)=O)c2)C(C#N)=C(N)O1 (configuration not stated) : what is it?
-67.7% (inactive)

Reported inhibition for "COc1ccccc1CNC(=O)Nc1cccs1" : what is it?
-30.8% (inactive)
